The origin of these recorded values is ChEMBL document CHEMBL3817752.

- Tested on: Mycobacterium tuberculosis variant bovis
- procedure.summary: Antimycobacterial activity against Mycobacterium bovis NCTC 10772 after 7 days by resazurin microtiter assay
- Assay type: functional
- measurement.context: NCTC 10772, 168 h
Response field label takes condition met when MIC is strictly below 20 µM and condition not met in all other cases.

Please review the following examples before continuing.
>>> print(df.to_string())
                                   molecule   class_assignment
0  N/C(=N/NC(CC(=O)c1ccc(-n2ccnc2)cc1)c1ccc(F)cc1)c1ccccn1 (centres undefined)      condition met
1  N/C(=N/NC(CC(=O)c1ccc(-n2ccnc2)cc1)c1cccc(F)c1)c1ccccn1 (centres undefined)      condition met
2  N/C(=N/NC(CC(=O)c1ccc(-n2ccnc2)cc1)c1ccccc1Br)c1ccccn1 (centres undefined)  condition not met
3  N/C(=N/NC(CC(=O)c1ccc(-n2ccnc2)cc1)c1cccc(Cl)c1)c1ccccn1 (centres undefined)      condition met
4  N/C(=N/NC(CC(=O)c1ccc(-n2ccnc2)cc1)c1ccc(Cl)cc1Cl)c1ccccn1 (centres undefined)      condition met
5  N/C(=N/NC(CC(=O)c1ccc(-n2ccnc2)cc1)c1ccc([N+](=O)[O-])cc1)c1ccccn1 (centres undefined)  condition not met
6  N/C(=N/NC(CC(=O)c1ccc(-n2ccnc2)cc1)c1ccc(Cl)cc1)c1ccccn1 (centres undefined)      condition met
7  N/C(=N/NC(CC(=O)c1ccc(-n2ccnc2)cc1)c1cccc(Br)c1)c1ccccn1 (centres undefined)      condition met

Q) Quick check: MIC of `NNC(=O)c1ccncc1` under 20 µM?
A) condition met

====

Form field: MIC (one value per entry).
- Test system: Mycobacterium tuberculosis variant bovis
- procedure.summary: Antimycobacterial activity against Mycobacterium bovis NCTC 10772 after 7 days by resazurin microtiter assay
- Assay type: functional
- measurement.context: NCTC 10772, 168 h
Report as a plain number; the unit µM is understood.

The following compounds have reported results that may help.
>>> print(df.to_string())
                                   compound  assay_result
0  N/C(=N/NC(CC(=O)c1ccc(-n2ccnc2)cc1)c1ccccc1Cl)c1ccccn1 (stereo unspecified)            18
1  N/C(=N/NC(CC(=O)c1ccc(-n2ccnc2)cc1)c1ccc(Br)cc1)c1ccccn1 (stereo unspecified)           8.2
2  N/C(=N/NC(CC(=O)c1ccc(-n2ccnc2)cc1)c1ccccc1F)c1ccccn1 (stereo unspecified)          18.7
3  N/C(=N/NC(CC(=O)c1ccc(-n2ccnc2)cc1)c1ccccc1)c1ccccn1 (stereo unspecified)            39
4  N/C(=N/NC(CC(=O)c1ccc(-n2ccnc2)cc1)c1ccccc1[N+](=O)[O-])c1ccccn1 (stereo unspecified)          17.6

Then there is this compound:
Q) What does the record list as MIC for N/C(=N/NC(CC(=O)c1ccc(-n2ccnc2)cc1)c1cccc([N+](=O)[O-])c1)c1ccccn1 (stereo unspecified) ?
A) 17.6
